Taken from the supplement of paper PMC9112550.

System: Escherichia coli TOP10
PROTOCOL_TEXT: shrunken log2 fold change of peptide-encoding DNA abundance (4.5 h post-induction vs induction); higher = less antimicrobial activity (less host growth inhibition)
MEASUREMENT_PARAMETERS: time post-induction: 4.5 h; library: site-saturation at positions 5, 18, 19, 20
Each item that follows carries a reported shrunken log2 fold change.
Keep the answer to the number alone.

{"SEQUENCE_ENTRY": "RRIRRRPPRLPRPRPRPCHMPRP", "TARGET_OR_TEST_SYSTEM": "Escherichia coli TOP10", "QUANTITATIVE_READOUT": -0.237}
{"SEQUENCE_ENTRY": "RRIRLRPPRLPRPRPRPGSDPRP", "TARGET_OR_TEST_SYSTEM": "Escherichia coli TOP10", "QUANTITATIVE_READOUT": -0.149}
{"SEQUENCE_ENTRY": "RRIRERPPRLPRPRPRPNLVPRP", "TARGET_OR_TEST_SYSTEM": "Escherichia coli TOP10", "QUANTITATIVE_READOUT": -0.0264}
{"SEQUENCE_ENTRY": "RRIRFRPPRLPRPRPRPIFPPRP", "TARGET_OR_TEST_SYSTEM": "Escherichia coli TOP10", "QUANTITATIVE_READOUT": -0.222}

## Input What does the record list as shrunken log2 fold change for `RRIRYRPPRLPRPRPRPSGRPRP` ?
## Output -0.261

## Input What does the record list as shrunken log2 fold change for `RRIRCRPPRLPRPRPRPMNNPRP` ?
## Output -0.537

## Input What does the record list as shrunken log2 fold change for `RRIRIRPPRLPRPRPRPKNGPRP` ?
## Output -0.202

## Input What does the record list as shrunken log2 fold change for `RRIRSRPPRLPRPRPRPRFNPRP` ?
## Output -0.153

## Input What does the record list as shrunken log2 fold change for `RRIRVRPPRLPRPRPRPGHYPRP` ?
## Output -0.125

## Input What does the record list as shrunken log2 fold change for `RRIRKRPPRLPRPRPRPRWKPRP` ?
## Output 0.702

====

System: Escherichia coli TOP10
PROTOCOL_TEXT: shrunken log2 fold change of peptide-encoding DNA abundance (4.5 h post-induction vs induction); higher = less antimicrobial activity (less host growth inhibition)
MEASUREMENT_PARAMETERS: time post-induction: 4.5 h; library: site-saturation at positions 5, 18, 19, 20
Output Y for shrunken log2 fold change not less than -0.2; output N otherwise.

Would you please look over these solved cases?
{"SEQUENCE_ENTRY": "RRIRARPPRLPRPRPRPNINPRP", "CAT": "N"}
{"SEQUENCE_ENTRY": "RRIRFRPPRLPRPRPRPSCGPRP", "CAT": "N"}
{"SEQUENCE_ENTRY": "RRIRVRPPRLPRPRPRPNGAPRP", "CAT": "Y"}
{"SEQUENCE_ENTRY": "RRIRERPPRLPRPRPRPLCDPRP", "CAT": "Y"}
{"SEQUENCE_ENTRY": "RRIRVRPPRLPRPRPRPMFSPRP", "CAT": "N"}
{"SEQUENCE_ENTRY": "RRIRARPPRLPRPRPRPMPMPRP", "CAT": "Y"}

Could you now look at the following sequence, please?
## Input Check if shrunken log2 fold change >= -0.2 (inclusive). Item: `RRIRNRPPRLPRPRPRPGLSPRP`
## Output Y

====

Tested on: Escherichia coli TOP10
PROTOCOL_TEXT: shrunken log2 fold change of peptide-encoding DNA abundance (4.5 h post-induction vs induction); higher = less antimicrobial activity (less host growth inhibition)
MEASUREMENT_PARAMETERS: time post-induction: 4.5 h; library: site-saturation at positions 5, 18, 19, 20
MEASUREMENT_LABEL: shrunken log2 fold change
Keep the answer to the number alone.

# annotated cases, reported shrunken log2 fold change shown
{"SEQUENCE_ENTRY": "RRIRARPPRLPRPRPRPQSIPRP", "shrunken log2 fold change": -0.0868}
{"SEQUENCE_ENTRY": "RRIRHRPPRLPRPRPRPEDMPRP", "shrunken log2 fold change": -0.208}

## Input What does the record list as shrunken log2 fold change for `RRIRKRPPRLPRPRPRPHEKPRP` ?
## Output 1.1

## Input What does the record list as shrunken log2 fold change for `RRIRMRPPRLPRPRPRPCCSPRP` ?
## Output 0.0205

## Input What does the record list as shrunken log2 fold change for `RRIRDRPPRLPRPRPRPNHKPRP` ?
## Output -0.661

## Input What does the record list as shrunken log2 fold change for `RRIRIRPPRLPRPRPRPMHVPRP` ?
## Output -0.00468

## Input What does the record list as shrunken log2 fold change for `RRIRRRPPRLPRPRPRPHCGPRP` ?
## Output -0.0836

## Input What does the record list as shrunken log2 fold change for `RRIRLRPPRLPRPRPRPKCVPRP` ?
## Output 0.0912

====

Test system: Escherichia coli TOP10
PROTOCOL_TEXT: shrunken log2 fold change of peptide-encoding DNA abundance (4.5 h post-induction vs induction); higher = less antimicrobial activity (less host growth inhibition)
MEASUREMENT_PARAMETERS: time post-induction: 4.5 h; library: site-saturation at positions 5, 18, 19, 20
Output class 1 for shrunken log2 fold change not less than -0.06; output class 0 otherwise.

{"SEQUENCE_ENTRY": "RRIRLRPPRLPRPRPRPHVQPRP", "CAT": "class 0"}
{"SEQUENCE_ENTRY": "RRIRSRPPRLPRPRPRPEPLPRP", "CAT": "class 1"}
{"SEQUENCE_ENTRY": "RRIRQRPPRLPRPRPRPIHHPRP", "CAT": "class 0"}

## Input Check if shrunken log2 fold change >= -0.06 (inclusive). Item: `RRIRRRPPRLPRPRPRPMWQPRP`
## Output class 1

## Input Check if shrunken log2 fold change >= -0.06 (inclusive). Item: `RRIRKRPPRLPRPRPRPFIDPRP`
## Output class 1

====

Test system: Escherichia coli TOP10
PROTOCOL_TEXT: shrunken log2 fold change of peptide-encoding DNA abundance (4.5 h post-induction vs induction); higher = less antimicrobial activity (less host growth inhibition)
MEASUREMENT_PARAMETERS: time post-induction: 4.5 h; library: site-saturation at positions 5, 18, 19, 20
Output t for shrunken log2 fold change not less than -0.001; output f otherwise.

Would you please look over these solved cases?
{"SEQUENCE_ENTRY": "RRIRKRPPRLPRPRPRPAGHPRP", "CAT": "t"}
{"SEQUENCE_ENTRY": "RRIRIRPPRLPRPRPRPWYMPRP", "CAT": "f"}
{"SEQUENCE_ENTRY": "RRIRSRPPRLPRPRPRPGCGPRP", "CAT": "t"}
{"SEQUENCE_ENTRY": "RRIRTRPPRLPRPRPRPLWLPRP", "CAT": "t"}
{"SEQUENCE_ENTRY": "RRIRARPPRLPRPRPRPWGCPRP", "CAT": "t"}

## Input Check if shrunken log2 fold change >= -0.001 (inclusive). Item: `RRIRWRPPRLPRPRPRPHEQPRP`
## Output t

## Input Check if shrunken log2 fold change >= -0.001 (inclusive). Item: `RRIRVRPPRLPRPRPRPCHFPRP`
## Output f

## Input Check if shrunken log2 fold change >= -0.001 (inclusive). Item: `RRIRARPPRLPRPRPRPEQDPRP`
## Output t

## Input Check if shrunken log2 fold change >= -0.001 (inclusive). Item: `RRIRRRPPRLPRPRPRPWQWPRP`
## Output t

## Input Check if shrunken log2 fold change >= -0.001 (inclusive). Item: `RRIRIRPPRLPRPRPRPVKGPRP`
## Output f

====

System: Escherichia coli TOP10;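 also: peptides expressed intracellularly from a pBAD plasmid library in pooled LB shake-flask culture, induced with 0.3% L-arabinose, DNA abundance read by NGS, three biological replicates, DESeq2 with apeglm shrinkage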
PROTOCOL_TEXT: shrunken log2 fold change of peptide-encoding DNA abundance (4.5 h post-induction vs induction); higher = less antimicrobial activity (less host growth inhibition)
MEASUREMENT_PARAMETERS: time post-induction: 4.5 h; library: site-saturation at positions 5, 18, 19, 20
Each item that follows carries a reported shrunken log2 fold change.
Keep the answer to the number alone.

# annotated cases, reported shrunken log2 fold change shown
{"SEQUENCE_ENTRY": "RRIRCRPPRLPRPRPRPTYLPRP", "TARGET_OR_TEST_SYSTEM": "Escherichia coli TOP10", "MEASUREMENT_LABEL": "shrunken log2 fold change", "QUANTITATIVE_READOUT": -0.292}
{"SEQUENCE_ENTRY": "RRIRLRPPRLPRPRPRPHQQPRP", "TARGET_OR_TEST_SYSTEM": "Escherichia coli TOP10", "MEASUREMENT_LABEL": "shrunken log2 fold change", "QUANTITATIVE_READOUT": 0.0445}
{"SEQUENCE_ENTRY": "RRIRFRPPRLPRPRPRPVWKPRP", "TARGET_OR_TEST_SYSTEM": "Escherichia coli TOP10", "MEASUREMENT_LABEL": "shrunken log2 fold change", "QUANTITATIVE_READOUT": -0.0844}

Lab note: next sequence to report on.
## Input What does the record list as shrunken log2 fold change for `RRIRSRPPRLPRPRPRPCGTPRP` ?
## Output 0.202
